Below, each of the binders is paired with its reported Human T-cell Binding 0.2 uM (MFI) value.
target: T1, human CD8 alpha (CD8A) on primary human CD8+ T cells (human, UniProt P01732 22-235); assay: flow cytometry, human CD8+ T cells
T1 construct: whole, on cells; also called hCD8A
T1 sequence (P01732 22-235): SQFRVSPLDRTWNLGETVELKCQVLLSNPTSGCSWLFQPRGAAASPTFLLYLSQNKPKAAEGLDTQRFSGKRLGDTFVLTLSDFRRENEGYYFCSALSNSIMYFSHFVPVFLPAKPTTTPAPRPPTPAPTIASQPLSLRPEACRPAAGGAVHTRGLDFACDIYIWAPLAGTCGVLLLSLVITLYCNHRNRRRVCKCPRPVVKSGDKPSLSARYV
experimentalEndpoint: Human T-cell Binding 0.2 uM (MFI)

binder | unitDescriptor | assayValue
P283FR9P1366_D7 (designed binder, FN3 domain) LPAPKNLVVSRVTEDSARLSWTAPDAAFDSFSIAYPELPVKGEAIVLTVPGSERSYDLTGLKPGTEYFVVIWGVKGGTYSGPLSAIFTT | MFI | 566
P283FR9P1366_E11 (designed binder, FN3 domain) LPAPKNLVVSRVTEDSARLSWTAPDAAFDSFDIAYPEWPVPGEAIVLTVPGSERSYDLTGLKPGTEYWVIIKGVKGGNISWPLSAIFTT | MFI | 567
P283HR7P1368_F6 (designed binder, FN3 domain) LPAPKNLVVSRVTEDSARLSWTAPDAAFDSFGIGYIEWVHRGEAISLHVPGSERSYDLTGLKPGTEYVVAIVGVKGGEPSTPLGAPFTT | MFI | 3510

These measurements were taken from patent US20210032312A1.
